Test system: RPMI-7272 human melanoma cells
Assay: In vitro RPMI-7272 human melanoma cell growth inhibition
Type: cell-based
Conditions: RPMI-7272 melanoma, inhibition of cell doublings by 50%, 72 h, read-out: ID50 (the source's name)
experimental readout: IC50 (µg/mL)

{"columns": ["smiles text", "IC50 (µg/mL)"],
 "data": [
  ["Nc1nc(-c2cccc3ccccc23)cc2cccc(Cl)c12", 0.07]
]}

1. Cc1ccc2c(=O)[nH]c(-c3cccc4ccccc34)cc2c1
2. C[N+](C)(C)c1ccc2cc(-c3cccc4ccccc34)[nH]c(=O)c2c1
3. Cc1cccc2c(N)nc(-c3cccc4ccccc34)cc12
Input line: Ordering criterion: IC50; begin with the maximum. Field: ranking. Enter the labels in the order requested.
Output line: 3, 2, 1
